# pKd listing for each entry below
- assay target: T1, wild type human CD47 (Acro Biosystems, cat. no. CD7-H5227) (human, UniProt Q08722 19-139)
- T1 construct: Bought protein used as SPR analyte; also called Human CD47 wt; wild-type CD47
- T1 sequence (Q08722 19-139 limits assumed): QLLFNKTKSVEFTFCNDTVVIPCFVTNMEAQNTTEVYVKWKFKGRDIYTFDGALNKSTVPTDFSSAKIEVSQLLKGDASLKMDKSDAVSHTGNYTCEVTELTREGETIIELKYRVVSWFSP
- test details: SPR, IgG captured, CD47 in flow; exp 3;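 note: biacore T200 SPR with antibodies taken from supernatants of transfected HEK293 cells, C33G mutein avoiding IgV homodimers for monovalent affinity, Kd derived from association and dissociation rate constants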
# log scale: pKd equals minus log10 of the concentration in mol/L

>>> endpoint_value("108VH5.M17 / 108VL1.M5 (antibody, human IgG4 S228P, kappa, V domains shown, Full-length IgG4 (S228P), kappa; also called VH5.M17 VL1.M5) VH: EVQLVQSGAEVKKPGASVKVSCKASGYTFTHHWMHWVRQAPGQGLEWMGMIDASEGETRYAQKFQGRVTMTRDTSTSTVYMELSSLRSEDTAVYYCARLGRYYFDYWGQGTLVTVSS VL: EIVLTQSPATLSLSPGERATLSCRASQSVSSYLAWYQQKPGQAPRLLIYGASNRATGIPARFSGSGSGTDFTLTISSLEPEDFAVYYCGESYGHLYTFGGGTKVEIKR")
7.74

Qu. Give the value of pKd reported for the following: 108VH4.M4-VL1.M1 (antibody, V domains shown, also called original humanized 108C10A6 antibody) VH: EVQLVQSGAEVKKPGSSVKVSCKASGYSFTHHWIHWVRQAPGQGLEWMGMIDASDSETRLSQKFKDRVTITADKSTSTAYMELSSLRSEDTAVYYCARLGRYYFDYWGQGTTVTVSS VL: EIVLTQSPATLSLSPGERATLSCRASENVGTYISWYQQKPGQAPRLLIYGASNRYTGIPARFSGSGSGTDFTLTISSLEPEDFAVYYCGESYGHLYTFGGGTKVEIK
Ans. 9.39
